target: P-gp (Homo sapiens, UniProt P08183); assay: in vitro; settings: MCF-7/ADR cells (cell lysate)
Sequence (P08183 whole entry): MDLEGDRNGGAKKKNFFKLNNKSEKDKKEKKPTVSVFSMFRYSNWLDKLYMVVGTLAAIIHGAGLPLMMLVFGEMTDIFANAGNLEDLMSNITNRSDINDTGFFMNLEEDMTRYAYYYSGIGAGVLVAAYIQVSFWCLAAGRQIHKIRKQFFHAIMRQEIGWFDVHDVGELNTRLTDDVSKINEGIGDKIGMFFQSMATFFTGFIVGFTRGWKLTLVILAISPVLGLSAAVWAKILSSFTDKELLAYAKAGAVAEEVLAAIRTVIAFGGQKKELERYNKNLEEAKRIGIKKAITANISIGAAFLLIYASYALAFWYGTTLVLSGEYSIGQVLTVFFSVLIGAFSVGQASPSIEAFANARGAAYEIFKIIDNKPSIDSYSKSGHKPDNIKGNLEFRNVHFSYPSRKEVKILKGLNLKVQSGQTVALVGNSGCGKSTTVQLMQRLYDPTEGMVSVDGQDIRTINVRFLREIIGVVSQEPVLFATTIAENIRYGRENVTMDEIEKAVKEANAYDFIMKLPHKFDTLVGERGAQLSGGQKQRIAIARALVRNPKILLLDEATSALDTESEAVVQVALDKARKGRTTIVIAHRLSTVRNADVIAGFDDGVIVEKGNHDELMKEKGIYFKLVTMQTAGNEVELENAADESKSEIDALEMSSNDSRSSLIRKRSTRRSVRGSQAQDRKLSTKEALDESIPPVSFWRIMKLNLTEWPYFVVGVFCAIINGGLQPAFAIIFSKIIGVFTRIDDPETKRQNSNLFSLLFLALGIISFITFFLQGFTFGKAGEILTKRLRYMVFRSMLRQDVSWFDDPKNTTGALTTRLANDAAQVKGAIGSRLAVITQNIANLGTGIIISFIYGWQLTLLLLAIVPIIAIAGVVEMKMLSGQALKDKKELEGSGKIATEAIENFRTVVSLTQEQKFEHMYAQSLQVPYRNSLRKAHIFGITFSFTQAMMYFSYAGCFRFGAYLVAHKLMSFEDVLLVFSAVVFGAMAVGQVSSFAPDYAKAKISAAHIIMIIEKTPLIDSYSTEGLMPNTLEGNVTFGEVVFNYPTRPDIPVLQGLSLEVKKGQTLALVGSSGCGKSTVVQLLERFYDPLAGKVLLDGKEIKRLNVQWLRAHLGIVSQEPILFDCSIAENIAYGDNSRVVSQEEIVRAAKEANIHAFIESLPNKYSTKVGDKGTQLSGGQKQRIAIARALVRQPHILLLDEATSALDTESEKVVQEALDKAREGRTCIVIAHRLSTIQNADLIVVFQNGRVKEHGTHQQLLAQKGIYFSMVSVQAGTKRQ
For each record, write down the corresponding IC50 at 48 h.
One number for each entry, in µM.

{"Molecule": "N#CC1=C(N)Oc2ccc3ccc(O)cc3c2C1c1ccccc1Cl (stereo not drawn)", "System": "P-gp (Homo sapiens, UniProt P08183)", "IC50 at 48 h, µM": 15.4}
{"Molecule": "N#CC1=C(N)Oc2ccc3ccc(O)cc3c2C1c1ccc(F)cc1 (stereo not drawn)", "System": "P-gp (Homo sapiens, UniProt P08183)", "IC50 at 48 h, µM": 34.7}

Kindly review the next molecule as well.
-- ask Please look at this molecule and report its IC50 at 48 h: N#CC1=C(N)Oc2ccc3ccc(O)cc3c2C1c1cccc(Cl)c1 (stereo not drawn)
-- reply 27.3
